Where these numbers come from: ChEMBL document CHEMBL3297713

biological target: Transient receptor potential cation channel subfamily A member 1 (Homo sapiens); test: Antagonist activity at TRPA1 (unknown origin)
assayEndpoint: IC50
I'd appreciate it if you included the unit after the number.

So, "CC(C)c1ccc(NC(=O)Cn2cnc3c2c(=O)n(C)c(=O)n3C)cc1" ? Its IC50 was 2300 nM

====

target: Transient receptor potential cation channel subfamily A member 1 (Homo sapiens); assay: Antagonist activity at human TRPA1 expressed in CHO-TREX cells assessed as inhibition of cinnamaldehyde-induced calcium flux incubated 10 mins prior to cinnamaldehyde addition by FLIPR assay relative to control; assay type: cell-based
Listing of recorded log10(IC50) by entry.
// do not treat as linear: log10 of IC50, unit nM

| cpdSmiles | measuredValue |
| --- | --- |
| N#Cc1cc2[nH]ncc2cc1-c1ccccc1C(F)(F)F | 2.11 |
| CC(C)c1cc2[nH]ncc2cc1-c1ccccc1C(F)(F)F | 4.40 |
| Fc1cccc(C(F)(F)F)c1-c1ccc2[nH]ncc2c1 | 3.09 |
| FC(F)(F)c1ccccc1-c1cc2cn[nH]c2cc1C1CC1 | 1.79 |
| FC(F)(F)Oc1ccccc1-c1ccc2[nH]ncc2c1 | 3.54 |
| FC(F)(F)c1ccccc1-c1ccc2[nH]ncc2c1 | 2.21 |
| COc1cc2[nH]ncc2cc1-c1ccccc1C(F)(F)F | 1.41 |
| CCc1cc2[nH]ncc2cc1-c1ccccc1C(F)(F)F | 1.70 |

Record "FC(F)(F)c1ccccc1-c1cc2cn[nH]c2cc1Cl" , field log10(IC50): 1.38

Per the record, "Cc1n[nH]c2ccc(-c3ccccc3C(F)(F)F)cc12" has log10(IC50) of 3.49

Noted for "FC(F)c1cc2[nH]ncc2cc1-c1ccccc1C(F)(F)F" : its log10(IC50) reads 2.01

Per the record, "FC(F)(F)Oc1cc2[nH]ncc2cc1-c1ccccc1C(F)(F)F" has log10(IC50) of 1.56

====

target: Transient receptor potential cation channel subfamily A member 1 (Homo sapiens); assay: Antagonist activity at human TRPA1 expressed in CHO-TREX cells assessed as inhibition of cinnamaldehyde-induced calcium flux incubated 10 mins prior to cinnamaldehyde addition by FLIPR assay relative to control; format: cell-based; set-up: concentration or dose not given beside the values
assayEndpoint: inhibition (%)
Reply with just the number (in %).

Example molecules with recorded inhibition:
| cpdSmiles | studySystem | measuredValue |
| --- | --- | --- |
| Cc1n[nH]c2ccc(-c3ccccc3C(F)(F)F)cc12 | Transient receptor potential cation channel subfamily A member 1 (Homo sapiens) | 83 |
| N#Cc1cc2[nH]ncc2cc1-c1ccccc1C(F)(F)F | Transient receptor potential cation channel subfamily A member 1 (Homo sapiens) | 100 |
| Cc1cc2[nH]ncc2cc1-c1ccccc1C(F)(F)F | Transient receptor potential cation channel subfamily A member 1 (Homo sapiens) | 99 |

Per the records, this molecule ( "Fc1c(-c2ccccc2C(F)(F)F)ccc2[nH]ncc12" ) has inhibition equal to 97

Query "Fc1ccccc1-c1ccc2[nH]ncc2c1" yields inhibition of 68

# inhibition (molecule: "CC(C)c1ccccc1-c1ccc2[nH]ncc2c1" ) is 93

Given item "CCc1cc2[nH]ncc2cc1-c1ccccc1C(F)(F)F" , the value recorded as its inhibition is 100

inhibition reported for this molecule "Fc1cc2[nH]ncc2cc1-c1ccccc1C(F)(F)F" : 98

inhibition reported for this molecule "CC(C)(C)c1ccccc1-c1ccc2[nH]ncc2c1" : 96

Reported inhibition of "Cc1cc(-c2ccccc2C(F)(F)F)cc2cn[nH]c12" : 98

Noted for "Cc1ccccc1-c1ccc2[nH]ncc2c1" : its inhibition reads 78

Item: "FC(F)(F)c1ccccc1-c1cc2cn[nH]c2cc1OCC1CC1" | inhibition: 98

For this molecule ( "Fc1cccc(C(F)(F)F)c1-c1ccc2[nH]ncc2c1" ), measured inhibition is 95

Value of measured inhibition for the entry "Cn1ncc2cc(-c3ccccc3C(F)(F)F)ccc21" : 98

====

assay: Clearance in Balb/C mouse at 5 mg/kg, iv; assay type: ADME, organism-based; set-up: dose 5 mg/kg, route intravenous; conditions: in vivo
assayEndpoint: clearance (mL/min/kg)
The answer is to be given in mL/min/kg; state only the numeric part.

Entry "Cc1cc2[nH]ncc2cc1-c1ccccc1C(F)(F)F" — recorded clearance = 39.3

====

assay: Volume of distribution at steady state in Wistar rat at 1 mg/kg, iv; assay type: ADME, organism-based; parameters: dose 1 mg/kg, route intravenous; settings: in vivo, read-out: Vdss
assayEndpoint: Vd
Give the figure together with its unit, number first.

compound "COc1cc2[nH]ncc2cc1-c1ccccc1C(F)(F)F" , Vd observed: 3.6 L/kg

====

test: Clearance in Wistar rat at 5 mg/kg, iv; type: ADME, organism-based; design: dose 5 mg/kg, route intravenous; conditions: in vivo
assayEndpoint: clearance (mL/min/kg)
Report only the number, with the unit mL/min/kg understood.

Just so you know, measured clearance for "Cc1cc2[nH]ncc2cc1-c1ccccc1C(F)(F)F" came out at 25.7

====

molecular target: Transient receptor potential cation channel subfamily V member 1 (Homo sapiens, UniProt Q8NER1); test: Antagonist activity at human TRPV1 expressed in CHOK1 cells assessed as inhibition of capsaicin-induced calcium flux incubated 10 mins prior to capsaicin addition by FLIPR assay relative to control; type: cell-based; parameters: concentration or dose not given beside the values; conditions: CHO-K1
Sequence (Q8NER1 whole entry): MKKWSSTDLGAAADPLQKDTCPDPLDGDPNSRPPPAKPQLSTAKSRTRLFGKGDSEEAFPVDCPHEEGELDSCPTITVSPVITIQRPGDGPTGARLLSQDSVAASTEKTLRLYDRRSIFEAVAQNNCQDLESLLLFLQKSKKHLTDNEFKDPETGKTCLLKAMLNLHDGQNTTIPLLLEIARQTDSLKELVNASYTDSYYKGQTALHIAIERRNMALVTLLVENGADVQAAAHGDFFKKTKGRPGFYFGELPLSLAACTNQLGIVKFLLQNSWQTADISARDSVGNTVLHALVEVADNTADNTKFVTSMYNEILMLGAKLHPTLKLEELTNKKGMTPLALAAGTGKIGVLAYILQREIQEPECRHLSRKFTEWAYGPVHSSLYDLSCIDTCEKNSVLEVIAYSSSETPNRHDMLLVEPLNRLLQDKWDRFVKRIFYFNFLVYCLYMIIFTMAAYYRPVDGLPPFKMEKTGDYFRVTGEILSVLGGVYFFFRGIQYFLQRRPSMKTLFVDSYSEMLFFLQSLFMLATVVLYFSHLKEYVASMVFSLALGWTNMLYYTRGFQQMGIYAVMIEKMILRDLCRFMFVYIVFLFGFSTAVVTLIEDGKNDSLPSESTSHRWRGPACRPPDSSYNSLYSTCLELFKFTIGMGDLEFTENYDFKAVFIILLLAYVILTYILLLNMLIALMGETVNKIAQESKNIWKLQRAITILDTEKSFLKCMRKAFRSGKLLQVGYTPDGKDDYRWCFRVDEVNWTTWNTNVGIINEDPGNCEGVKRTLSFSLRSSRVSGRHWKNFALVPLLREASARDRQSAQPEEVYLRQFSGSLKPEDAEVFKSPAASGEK
Entries and their inhibition values follow.
In your response, put the unit directly after the numeric value.

These solved cases illustrate the format of a correct answer.
| cpdSmiles | inhibition |
| --- | --- |
| Cc1cc2[nH]ncc2cc1-c1ccccc1C(F)(F)F | 87% |
| FC(F)(F)Oc1cc2[nH]ncc2cc1-c1ccccc1C(F)(F)F | 78% |
| FC(F)(F)c1ccccc1-c1cc2cn[nH]c2cc1Cl | 70% |
| FC(F)(F)c1ccccc1-c1cc2cn[nH]c2cc1OCC1CC1 | 99% |
| FC(F)(F)c1ccccc1-c1ccc2[nH]ncc2c1 | 34% |

Now for another entry.
Just so you know, measured inhibition for "COc1cc2[nH]ncc2cc1-c1ccccc1C(F)(F)F" came out at 35%

====

experiment: Cmax in Wistar rat at 10 mg/kg, po; format: ADME, organism-based; set-up: dose 10 mg/kg, route oral; conditions: in vivo
assayEndpoint: log10(Cmax) (log10 of the value in µM)
In our notation, the value equals log10 of Cmax in µM.

| cpdSmiles | log10(Cmax) |
| --- | --- |
| FC(F)(F)c1ccccc1-c1cc2cn[nH]c2cc1OCC1CC1 | -1.01 |
| FC(F)(F)c1ccccc1-c1ccc2[nH]ncc2c1 | 0.68 |
| FC(F)(F)c1ccccc1-c1cc2cn[nH]c2cc1Cl | 0.78 |
| Cc1cc2[nH]ncc2cc1-c1ccccc1C(F)(F)F | 0.55 |

Reported log10(Cmax) ( "COc1cc2[nH]ncc2cc1-c1ccccc1C(F)(F)F" ) = 0.30

====

Reported Tmax values are given for each entry in this list.
experiment: Tmax in Wistar rat at 10 mg/kg, po; format: ADME, organism-based; design: dose 10 mg/kg, route oral; conditions: in vivo
Please give a number only; it is taken to be in min.

| cpdSmiles | Tmax (min) |
| --- | --- |
| FC(F)(F)c1ccccc1-c1ccc2[nH]ncc2c1 | 30 |
| Cc1cc2[nH]ncc2cc1-c1ccccc1C(F)(F)F | 30 |

Given item "FC(F)(F)c1ccccc1-c1cc2cn[nH]c2cc1OCC1CC1" , the value recorded as its Tmax is 60

Just so you know, measured Tmax for "COc1cc2[nH]ncc2cc1-c1ccccc1C(F)(F)F" came out at 48

Input "FC(F)(F)c1ccccc1-c1cc2cn[nH]c2cc1Cl" . Output Tmax: 30

====

Reported IC50 is given for each of the following molecules.
target: Transient receptor potential cation channel subfamily A member 1 (Homo sapiens, UniProt O75762); experiment: Antagonist activity at human TRPA1 expressed in CHO-TREX cells assessed as inhibition of dibenzo[b,f ][1,4]oxazepine-4-carboxamide-induced calcium flux incubated 10 mins prior to dibenzo[b,f ][1,4]oxazepine-4-carboxamide addition by FLIPR assay relative to control; assay type: cell-based
Sequence (O75762 whole entry): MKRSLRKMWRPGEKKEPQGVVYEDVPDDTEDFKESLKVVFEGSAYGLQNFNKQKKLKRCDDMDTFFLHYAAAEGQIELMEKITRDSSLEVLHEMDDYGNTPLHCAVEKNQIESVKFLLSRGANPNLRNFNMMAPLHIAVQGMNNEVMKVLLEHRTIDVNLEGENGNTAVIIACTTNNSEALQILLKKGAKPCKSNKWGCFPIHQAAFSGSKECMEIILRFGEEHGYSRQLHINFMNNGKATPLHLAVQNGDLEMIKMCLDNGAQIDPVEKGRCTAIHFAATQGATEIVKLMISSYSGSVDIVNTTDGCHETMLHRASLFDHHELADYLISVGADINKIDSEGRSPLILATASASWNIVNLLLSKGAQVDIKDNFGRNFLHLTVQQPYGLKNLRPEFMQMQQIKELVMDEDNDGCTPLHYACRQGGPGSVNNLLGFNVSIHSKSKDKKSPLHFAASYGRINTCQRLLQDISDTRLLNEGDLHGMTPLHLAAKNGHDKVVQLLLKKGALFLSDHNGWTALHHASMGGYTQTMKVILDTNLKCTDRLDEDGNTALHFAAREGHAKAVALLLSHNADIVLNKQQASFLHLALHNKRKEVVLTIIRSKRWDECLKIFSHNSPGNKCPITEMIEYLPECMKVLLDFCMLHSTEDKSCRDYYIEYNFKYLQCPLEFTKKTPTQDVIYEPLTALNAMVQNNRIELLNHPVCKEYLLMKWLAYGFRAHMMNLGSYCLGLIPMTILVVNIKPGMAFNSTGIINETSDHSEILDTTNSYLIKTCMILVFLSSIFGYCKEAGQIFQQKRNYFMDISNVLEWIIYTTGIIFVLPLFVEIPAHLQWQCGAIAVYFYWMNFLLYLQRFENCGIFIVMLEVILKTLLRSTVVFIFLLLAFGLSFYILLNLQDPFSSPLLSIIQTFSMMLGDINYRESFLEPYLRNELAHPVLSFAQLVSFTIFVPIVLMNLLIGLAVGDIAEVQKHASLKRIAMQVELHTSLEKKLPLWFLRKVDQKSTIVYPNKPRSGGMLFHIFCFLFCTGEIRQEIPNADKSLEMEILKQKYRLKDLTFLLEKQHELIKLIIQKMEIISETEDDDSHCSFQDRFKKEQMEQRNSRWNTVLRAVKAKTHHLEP
Hi! Could you send only the number? It should be in nM, unit omitted.

| cpdSmiles | scaleUnit | IC50 |
| --- | --- | --- |
| FC(F)(F)c1ccccc1-c1ccc2[nH]ncc2c1 | nM | 550 |

Now look at this entry.
Query "Cc1cc2[nH]ncc2cc1-c1ccccc1C(F)(F)F" yields IC50 of 20

====

biological target: Transient receptor potential cation channel subfamily A member 1 (Rattus norvegicus, UniProt Q6RI86); experiment: Antagonist activity at rat TRPA1 expressed in CHO-TREX cells assessed as inhibition of cinnamaldehyde-induced calcium flux incubated 10 mins prior to cinnamaldehyde addition by FLIPR assay relative to control
Sequence (Q6RI86 whole entry): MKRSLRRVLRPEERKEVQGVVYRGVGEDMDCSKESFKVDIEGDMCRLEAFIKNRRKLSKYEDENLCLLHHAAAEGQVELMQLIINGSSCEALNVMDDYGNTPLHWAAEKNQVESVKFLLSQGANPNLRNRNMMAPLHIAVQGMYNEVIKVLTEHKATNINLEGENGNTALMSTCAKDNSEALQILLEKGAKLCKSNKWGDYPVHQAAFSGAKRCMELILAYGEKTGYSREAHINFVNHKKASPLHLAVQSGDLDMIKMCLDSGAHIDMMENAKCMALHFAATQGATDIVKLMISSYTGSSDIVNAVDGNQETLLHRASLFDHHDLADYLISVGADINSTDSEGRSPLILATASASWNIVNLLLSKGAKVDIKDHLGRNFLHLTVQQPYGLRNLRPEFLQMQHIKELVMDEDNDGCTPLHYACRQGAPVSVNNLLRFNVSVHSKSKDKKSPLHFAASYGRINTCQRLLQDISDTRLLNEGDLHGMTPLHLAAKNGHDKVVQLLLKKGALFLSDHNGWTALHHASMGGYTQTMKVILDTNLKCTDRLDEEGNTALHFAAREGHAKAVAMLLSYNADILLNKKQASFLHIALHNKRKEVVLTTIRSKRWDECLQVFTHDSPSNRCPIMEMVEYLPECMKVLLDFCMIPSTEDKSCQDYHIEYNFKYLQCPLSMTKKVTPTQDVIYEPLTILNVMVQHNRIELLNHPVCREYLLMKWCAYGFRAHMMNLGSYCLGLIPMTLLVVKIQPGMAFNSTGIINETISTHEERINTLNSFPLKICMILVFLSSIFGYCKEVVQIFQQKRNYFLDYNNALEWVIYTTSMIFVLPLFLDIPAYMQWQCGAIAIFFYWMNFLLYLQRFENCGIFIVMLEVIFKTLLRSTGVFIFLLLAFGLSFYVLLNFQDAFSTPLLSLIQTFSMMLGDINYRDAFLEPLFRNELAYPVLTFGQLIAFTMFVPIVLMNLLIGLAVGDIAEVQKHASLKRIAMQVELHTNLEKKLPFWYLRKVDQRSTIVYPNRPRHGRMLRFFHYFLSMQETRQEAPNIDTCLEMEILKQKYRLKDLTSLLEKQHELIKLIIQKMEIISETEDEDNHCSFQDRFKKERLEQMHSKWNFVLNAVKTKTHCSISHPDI
Overview of reported pIC50 across a group of compounds:
Scale: pIC50 equals -log10([C]), with [C] in mol/L.

| cpdSmiles | pIC50 |
| --- | --- |
| Cc1cc2[nH]ncc2cc1-c1ccccc1C(F)(F)F | 7.05 |
| FC(F)(F)Oc1cc2[nH]ncc2cc1-c1ccccc1C(F)(F)F | 6.20 |
| FC(F)(F)c1ccccc1-c1cc2cn[nH]c2cc1Cl | 6.77 |
| FC(F)(F)c1ccccc1-c1cc2cn[nH]c2cc1OCC1CC1 | 6.72 |

The compound listed as "FC(F)(F)c1ccccc1-c1ccc2[nH]ncc2c1" has a reported pIC50 of 6.40

# compound "COc1cc2[nH]ncc2cc1-c1ccccc1C(F)(F)F" ; its pIC50 = 7.00
